- Experimental Target: UniProt:P17948
- Sequence (P17948 whole entry): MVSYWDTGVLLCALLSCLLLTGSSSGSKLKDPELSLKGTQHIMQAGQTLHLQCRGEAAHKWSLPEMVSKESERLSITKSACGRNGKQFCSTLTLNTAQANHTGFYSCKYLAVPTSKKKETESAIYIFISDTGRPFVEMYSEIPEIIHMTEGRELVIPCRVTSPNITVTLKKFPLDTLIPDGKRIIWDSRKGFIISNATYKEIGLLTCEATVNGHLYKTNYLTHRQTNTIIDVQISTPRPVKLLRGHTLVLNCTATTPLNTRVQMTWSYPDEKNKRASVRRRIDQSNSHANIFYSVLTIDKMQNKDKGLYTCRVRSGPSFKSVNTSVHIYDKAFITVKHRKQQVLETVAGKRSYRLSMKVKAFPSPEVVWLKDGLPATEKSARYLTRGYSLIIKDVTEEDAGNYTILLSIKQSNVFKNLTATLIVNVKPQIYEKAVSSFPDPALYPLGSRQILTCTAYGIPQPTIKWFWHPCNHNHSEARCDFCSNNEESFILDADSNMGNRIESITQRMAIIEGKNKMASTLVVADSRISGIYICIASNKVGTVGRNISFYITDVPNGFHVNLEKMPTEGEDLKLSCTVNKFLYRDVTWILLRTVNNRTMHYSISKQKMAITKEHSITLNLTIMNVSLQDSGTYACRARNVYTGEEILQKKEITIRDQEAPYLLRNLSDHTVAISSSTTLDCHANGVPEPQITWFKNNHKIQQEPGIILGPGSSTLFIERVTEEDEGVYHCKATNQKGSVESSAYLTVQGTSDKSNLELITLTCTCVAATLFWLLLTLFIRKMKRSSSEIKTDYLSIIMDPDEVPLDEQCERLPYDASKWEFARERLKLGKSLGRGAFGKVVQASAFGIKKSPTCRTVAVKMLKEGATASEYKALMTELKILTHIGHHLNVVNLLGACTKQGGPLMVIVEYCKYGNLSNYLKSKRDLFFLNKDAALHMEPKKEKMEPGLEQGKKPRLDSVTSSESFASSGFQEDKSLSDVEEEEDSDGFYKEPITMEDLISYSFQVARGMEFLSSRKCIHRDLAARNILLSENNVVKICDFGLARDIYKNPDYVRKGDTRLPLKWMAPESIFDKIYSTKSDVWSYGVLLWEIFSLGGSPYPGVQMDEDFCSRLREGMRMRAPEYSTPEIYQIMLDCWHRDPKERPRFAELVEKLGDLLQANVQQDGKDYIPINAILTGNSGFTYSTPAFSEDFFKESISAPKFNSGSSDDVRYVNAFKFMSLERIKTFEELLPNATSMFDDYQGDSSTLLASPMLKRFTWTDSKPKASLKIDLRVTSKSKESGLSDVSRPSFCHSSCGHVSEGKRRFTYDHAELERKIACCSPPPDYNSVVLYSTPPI
- Test Method Notes: Inhibition of recombinant GST-tagged VEGFR1 expressed in Sf9 insect cells after 120 mins by Kinase-Glo assay
pIC50: −log10 of the molar value.
Test Readout: pIC50

Some solved entries appear below for comparison.
Request: Return pIC50 measured with UniProt:P17948 given this compound: "Cc1nc(NCCN(C)C)cc(Nc2cc(-c3cccc(NS(=O)(=O)c4ccccc4)c3)n[nH]2)n1"
Result: < 6.00

Request: Further, for "CC(C)S(=O)(=O)Nc1cccc(-c2cc(NC(=O)c3ccc(N4CCN(C)CC4)cc3)[nH]n2)c1" ?
Result: < 6.00

Request: Next compound up: "O=C(Nc1cc(-c2cccc(NS(=O)(=O)c3ccccc3)c2)n[nH]1)c1ccc(OCCN2CCCC2)cc1"
Result: 6.57

// next item, pIC50 requested
Request: Report pIC50 for "Cc1nc(Nc2cc(-c3cccc(NS(=O)(=O)c4ccccc4)c3)n[nH]2)cc(N2CCN(CCO)CC2)n1" tested on UniProt:P17948.
Result: < 6.00

###

- Experimental Target: UniProt O14965
- Sequence (O14965 whole entry): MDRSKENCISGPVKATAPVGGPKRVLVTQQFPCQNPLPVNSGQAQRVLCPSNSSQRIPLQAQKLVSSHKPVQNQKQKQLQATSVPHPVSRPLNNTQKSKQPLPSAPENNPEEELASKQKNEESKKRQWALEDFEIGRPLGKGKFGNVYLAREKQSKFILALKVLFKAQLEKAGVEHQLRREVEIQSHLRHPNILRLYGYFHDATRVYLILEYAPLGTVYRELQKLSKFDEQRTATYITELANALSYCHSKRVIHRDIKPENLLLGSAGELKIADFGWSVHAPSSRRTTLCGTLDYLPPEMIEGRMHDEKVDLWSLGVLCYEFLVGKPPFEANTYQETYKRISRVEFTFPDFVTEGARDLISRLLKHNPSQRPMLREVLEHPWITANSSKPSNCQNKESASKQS
- Test Method Notes: Inhibition of recombinant GST-tagged Aurora A expressed in Sf9 insect cells after 90 mins by Kinase-Glo assay
Test Readout: IC50 (µM)

Request: GET /values?readout=IC50&item= "Cc1nc(Nc2cc(-c3cccc(NS(=O)(=O)c4ccccc4)c3)n[nH]2)cc(N2CCN(C)CC2)n1"
Result: 0.29

Request: One more compound: "O=C(Nc1cc(-c2cccc(NS(=O)(=O)c3ccccc3)c2)n[nH]1)c1ccc(CN2CCOCC2)cc1"
Result: 0.22

Request: Please answer likewise for "Cc1cccc(S(=O)(=O)Nc2cccc(-c3cc(NC(=O)c4ccc(N5CCN(C)CC5)cc4)[nH]n3)c2)c1"
Result: 0.43

Request: Ok, now "CN1CCN(c2ccc(C(=O)Nc3cc(-c4cccc(NS(=O)(=O)c5ccccc5)c4)n[nH]3)cc2)CC1"
Result: 0.34

###

- Test Method Notes: Volume of distribution at steady state in Sprague-Dawley rat at 5 mg/kg, iv
- Type: ADME, organism-based
- Design: dose 5 mg/kg, route intravenous
- Condition Label: in vivo, read-out: Vdss
Test Readout: Vd (L/kg)
Give the value in L/kg but do not write L/kg after it.

Answered cases to consult:
Request: Record request: Vd value, item "O=C(Nc1cc(-c2cccc(NS(=O)(=O)c3ccccc3)c2)n[nH]1)c1ccc(OCCN2CCCC2)cc1"
Result: 10.7

Request: Repeat for the following compound: "Cc1cccc(S(=O)(=O)Nc2cccc(-c3cc(NC(=O)c4ccc(N5CCN(C)CC5)cc4)[nH]n3)c2)c1"
Result: 2.6

***
Request: What value of measured Vd is listed for "CN1CCN(c2ccc(C(=O)Nc3cc(-c4cccc(NS(=O)(=O)c5ccccc5)c4)n[nH]3)cc2)CC1" ?
Result: 15.5
